From: paper PMC2690590

test_system: I-E^d (Mus musculus, UniProt P01904+P01915)
Construct: I-E^dA1-191LZFos; I-E^dB1-198LZJunBSP; made in house
method_summary: Direct LOCI peptide-MHC-II binding assay, I-E^d
quantity_measured: Kd (nM)
Express the result in nM but write the number alone.

Notebook: CC[C@H](C)[C@H](NC(=O)CNC(=O)[C@@H](NC(=O)[C@H](Cc1ccccc1)NC(=O)[C@H](CCCCN)NC(=O)[C@H](CO)NC(=O)[C@H](CC(N)=O)NC(=O)[C@H](C)NC(=O)[C@H](CCCCN)NC(=O)[C@@H](NC(=O)[C@H](Cc1ccc(O)cc1)NC(=O)[C@@H](N)CCC(N)=O)[C@@H](C)CC)[C@@H](C)CC)C(=O)N[C@H](C(=O)N[C@@H](CCC(=O)O)C(=O)O)[C@@H](C)O , Kd read as 1500

Turning now to a further record.
Notebook: CSCC[C@H](NC(=O)[C@@H](N)Cc1ccccc1)C(=O)N[C@@H](CO)C(=O)N[C@@H](CCCNC(=N)N)C(=O)N[C@@H](CCCCN)C(=O)N[C@@H](CC(C)C)C(=O)N[C@@H](Cc1c[nH]cn1)C(=O)N[C@@H](CCCNC(=N)N)C(=O)N[C@@H](Cc1ccc(O)cc1)C(=O)O , Kd read as 3

---

test_system: I-E^d (Mus musculus, UniProt P01904+P01915)
Construct: I-E^dA1-191LZFos; I-E^dB1-198LZJunBSP; made in house
method_summary: Direct LOCI peptide-MHC-II binding assay, I-E^d
particulars: I-E^D affinity (nM)
Where no end group is shown, it is not given here.
Measured Kd accompanies every entry in the list below.

Notebook: FLYGALLLA [MBP] , Kd read as > 5000 nM

Notebook: GVTYEIDLTNKN [Mycobact leprea] , Kd read as > 5000 nM

Notebook: PIVQNIQGQMVHQ [HIV] , Kd read as > 5000 nM

---

test_system: DR2a (DRA*0101/DRB5*0101) (Homo sapiens, UniProt P01903+Q30154)
Construct: DRA*01011-181LZFos; DRB5*01011-190LZJunBSP; made in house
Sequence (P01903 with tags, fused parts or gaps limits assumed): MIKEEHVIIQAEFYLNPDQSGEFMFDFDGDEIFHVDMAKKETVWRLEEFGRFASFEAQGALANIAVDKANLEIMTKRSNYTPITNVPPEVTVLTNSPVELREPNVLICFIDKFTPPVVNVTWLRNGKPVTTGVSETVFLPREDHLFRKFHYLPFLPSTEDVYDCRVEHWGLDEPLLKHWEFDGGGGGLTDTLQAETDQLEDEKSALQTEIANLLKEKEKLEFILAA
Sequence (Q30154 with tags, fused parts or gaps limits assumed): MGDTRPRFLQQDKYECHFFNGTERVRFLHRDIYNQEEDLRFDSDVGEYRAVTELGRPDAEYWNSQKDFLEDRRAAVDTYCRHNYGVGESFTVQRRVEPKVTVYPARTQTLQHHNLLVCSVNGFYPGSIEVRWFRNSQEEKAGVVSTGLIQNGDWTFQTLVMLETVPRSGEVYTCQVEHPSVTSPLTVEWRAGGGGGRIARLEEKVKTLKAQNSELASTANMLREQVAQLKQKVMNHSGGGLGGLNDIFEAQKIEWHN
method_summary: Direct LOCI peptide-MHC-II binding assay, DR2a
Where no end group is shown, it is not given here.
Measured Kd accompanies every entry in the list below.

// worked examples, Kd included
Notebook: GVTYEIDLTNKN [Mycobact leprea] , Kd read as > 5 µM

Notebook: WMARRHAER [Brucella] , Kd read as > 5 µM

---
Notebook: FLYGALLLA [MBP] , Kd read as > 5 µM
